- Procedure text: dye ratio change in CHT-lacking host cells – cell-based, parental HEK293, membrane potential dye, counter-screen for CHT activator project (AID 623908)
- Settings: parental HEK293, membrane potential dye fluorescence (FDSS); at 10 µM; measured after EC20 choline addition
Hit rate of the full screen: of about 2,500 compounds, about 1,500 (60%) were called active.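 How the source made its calls: active means duplicate-averaged ratio beyond 3 SD from buffer wells, up or down, though filed actives are nearly all decreases; inactive means the rest.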 So high a share suggests a set chosen from earlier hits. A selection follows.
Valid outcomes are listed here; reply with one: True = active, False = inactive

Illustrative cases are given below, each with its answer.
**Q:** Could you please tell me the result logged for CCN1CCN(c2ccc([N+](=O)[O-])cc2C#N)CC1 in this assay?
**A:** True

**Q:** Could you please tell me the result logged for CC[N+](CC)(CC)CCCCCCCCCC[N+](CC)(CC)CC in this assay?
**A:** True

**Q:** Could you please tell me the result logged for CN1CCN(c2cc(N3CCNCC3)ccc2[N+](=O)[O-])CC1 in this assay?
**A:** True

Now turn to the next compound.
**Q:** Could you please tell me the result logged for CCCCCn1c(=O)c(C(=O)Nc2c(C)n(C)n(-c3ccccc3)c2=O)c(O)c2ccccc21 in this assay?
**A:** False
